Ref: PubChem BioAssay AID1963844

system: 422866-222-R5-J1-PDC complex spheroid viability; experiment: Anticancer human tumor 422866-222-R5-J1-PDC patient-derived pancreatic adenocarcinoma cell line growth inhibition [POLQ]; conditions: second compound 0.1 µM; first compound 0.0316 µM; stronger effect = lower value
assay_endpoint: viability, T/C (%)
Numbers only, in %.

Example molecules with recorded viability, T/C:
COc1cccc(OCCCN)c1-c1cc(Nc2cnc(C#N)cn2)n[nH]1 + COC1C(OC(N)=O)C(O)C(Oc2ccc3c(O)c(NC(=O)c4ccc(O)c(CC=C(C)C)c4)c(=O)oc3c2C)OC1(C)C	32.3
COc1cccc2c1C(=O)c1c(O)c3c(c(O)c1C2=O)CC(O)(C(=O)CO)CC3OC1CC(N)C(O)C(C)O1 (stereo not given) + COC1C(OC(N)=O)C(O)C(Oc2ccc3c(O)c(NC(=O)c4ccc(O)c(CC=C(C)C)c4)c(=O)oc3c2C)OC1(C)C	75.5
COc1cccc2c1C(=O)c1c(O)c3c(c(O)c1C2=O)CC(O)(C(=O)CO)CC3OC1CC(N)C(O)C(C)O1 (stereo not given) + Cc1cccc(N(C)C(=O)C2C(O)CCN2c2nc(C)cc(C(F)(F)F)c2C#N)c1	66.6
Cn1ncnc1[C@H]1c2n[nH]c(=O)c3cc(F)cc(c23)N[C@@H]1c1ccc(F)cc1 + Cc1cccc(N(C)C(=O)C2C(O)CCN2c2nc(C)cc(C(F)(F)F)c2C#N)c1	81.8

With those in mind, consider the next molecule.
In: Given the molecule CC1COCCN1c1cc(-c2ccnn2C)c2ccnc(-c3ccn[nH]3)c2n1 (stereo not given) + Nc1ccc(C#CCN(C(=O)Cc2ncc(C(F)(F)F)cc2C(F)(F)F)c2ccc(F)cc2)nn1 , what is its reported viability, T/C?
Out: 112

----------
system: 422866-222-R5-J1-PDC complex spheroid viability; assay: Anticancer human tumor 422866-222-R5-J1-PDC cell line growth inhibition [POLQ]; conditions: second compound 0.0316 µM; first compound 3.16 µM; stronger effect = lower value;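 note: spheroids exposed to compounds for one week before readout; percent of DMSO vehicle wells luminescence so 100% = untreated viability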
Label label 1 when viability, T/C is strictly below 70%; at or above that, label label 0.

Worked examples, 2 compounds total:
C#Cc1c(F)ccc2cc(O)cc(-c3ncc4c(N5CC6CCC(C5)N6)nc(OCC56CCCN5CC(F)C6)nc4c3F)c12 (stereo not given) + COC1C(OC(N)=O)C(O)C(Oc2ccc3c(O)c(NC(=O)c4ccc(O)c(CC=C(C)C)c4)c(=O)oc3c2C)OC1(C)C	label 1
Nc1ccn(C2OC(CO)C(O)C2(F)F)c(=O)n1 (stereo not given) + COC1C(OC(N)=O)C(O)C(Oc2ccc3c(O)c(NC(=O)c4ccc(O)c(CC=C(C)C)c4)c(=O)oc3c2C)OC1(C)C	label 1

In: viability, T/C under 70%? Item: CCc1cc2c(N3CCc4c(cc(Cn5ccnc5)cc4-c4cn(C)nc4C(F)(F)F)C3=O)ccnc2c(OC)n1 + Nc1ccc(C#CCN(C(=O)Cc2ncc(C(F)(F)F)cc2C(F)(F)F)c2ccc(F)cc2)nn1
Out: label 0

In: Item CCc1cc2c(N3CCc4c(cc(Cn5ccnc5)cc4-c4cn(C)nc4C(F)(F)F)C3=O)cc(C)nc2c(OC)n1 + Nc1ccc(C#CCN(C(=O)Cc2ncc(C(F)(F)F)cc2C(F)(F)F)c2ccc(F)cc2)nn1 : viability, T/C beneath 70%, strictly?
Out: label 0

----------
System: 422866-222-R5-J1-PDC complex spheroid viability
Test: Anticancer human tumor 422866-222-R5-J1-PDC cell line growth inhibition [POLQ];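 note: spheroids exposed to compounds for one week before readout; percent of DMSO vehicle wells luminescence so 100% = untreated viability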
Details: second compound 0.0316 µM; first compound 0.316 µM; stronger effect = lower value
Description: Multicellular complex tumor spheroid response to Polymerase (POL) inhibitors (novobiocin, ART-558, RP6685) in combination with a variety of drugs and investigational agents in selected tumor cell lines The POL inhibitors (novobiocin, ART-558, and RP6685) were evaluated both individually and in combination with standard of care and investigational anticancer small molecules within a complex spheroid model of solid tumors. . […]
I'd be grateful if you could share measured viability, T/C for these entries.
Answers are plain numbers, in %.

Use these answered entries as a reference point.
CCc1c2c(nc3ccc(O)cc13)-c1cc3c(c(=O)n1C2)COC(=O)[C@]3(O)CC + Cc1cccc(N(C)C(=O)C2C(O)CCN2c2nc(C)cc(C(F)(F)F)c2C#N)c1	34.4
C#Cc1c(F)ccc2cc(O)cc(-c3ncc4c(N5CC6CCC(C5)N6)nc(OCC56CCCN5CC(F)C6)nc4c3F)c12 (stereo not drawn) + Nc1ccc(C#CCN(C(=O)Cc2ncc(C(F)(F)F)cc2C(F)(F)F)c2ccc(F)cc2)nn1	62.8

In: I have this compound here, CCc1c2c(nc3ccc(O)cc13)-c1cc3c(c(=O)n1C2)COC(=O)[C@]3(O)CC + Nc1ccc(C#CCN(C(=O)Cc2ncc(C(F)(F)F)cc2C(F)(F)F)c2ccc(F)cc2)nn1 , and I need its recorded viability, T/C.
Out: 35
